tested on: Pseudomonas fluorescens NRRL-B-18296; test: Growth on volatile chlorinated carbon sources (minimal media, vapor phase); assay type: cell-based; set-up: key: +: Growth; -: no growth; details: 72 hours at 25° C., minimal media (mmo), carbon source in vapor phase of sealed container
test_readout: Growth on carbon source

Example entries begin here.
CC(C)(Cl)Cl; +
ClCCCCl; -
ClC=C(Cl)Cl; +
CC(Cl)CCl (stereo not shown); +
ClCC(Cl)Cl; +
ClC(Cl)=C(Cl)Cl; -

Growth on carbon source for Pseudomonas fluorescens NRRL-B-18296 with input ClCCCl equals +
